testedOn: IP receptor (Homo sapiens, UniProt P43119)
Construct: one million cells in 160 μl aliquot of cell suspension were put in a well of 96 well plate
Sequence (P43119 whole entry): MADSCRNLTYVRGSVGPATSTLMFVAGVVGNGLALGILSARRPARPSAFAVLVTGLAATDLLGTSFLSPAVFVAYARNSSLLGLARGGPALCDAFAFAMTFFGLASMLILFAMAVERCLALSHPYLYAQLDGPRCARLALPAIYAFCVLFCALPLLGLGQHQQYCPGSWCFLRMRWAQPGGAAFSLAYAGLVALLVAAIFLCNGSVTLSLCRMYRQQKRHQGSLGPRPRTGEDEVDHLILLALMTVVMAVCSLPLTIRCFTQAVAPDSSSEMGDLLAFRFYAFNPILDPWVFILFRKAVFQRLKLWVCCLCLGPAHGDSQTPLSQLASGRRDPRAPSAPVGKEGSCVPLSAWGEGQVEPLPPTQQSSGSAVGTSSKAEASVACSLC
assayRemarks: IP receptor binding/cAMP in HEL cells ([3H]-iloprost binding, Assay 1; iloprost-induced cAMP production, Assay 2)
experimentalParameters: compounds of about 40 to 90% purity, read-out: In vitro activity grade (IC50 class)
pIC50: −log10 of the molar value.
Property: pIC50; scope: individual molecules
readoutType: pIC50

>>> print(df.to_string())
                                   molecule                                  testedon  readouttype        result
0  O=C(O)C(Cc1ccccc1)Nc1cccc(-c2ccc(OCc3cccc(F)c3)cc2)c1 (centres unmarked) [Example 24-5]  IP receptor (Homo sapiens, UniProt P43119)        pIC50        > 7.00
1  O=C(Cc1ccccc1)Nc1ccc(-c2cc(NC(Cc3ccccc3)C(=O)O)ncn2)cc1 (centres unmarked) [Example 14-3]  IP receptor (Homo sapiens, UniProt P43119)        pIC50  6.00 to 7.00
2  O=C(O)C(Cc1ccccc1)Nc1cc(-c2ccc(Oc3ccccc3)cc2)ncn1 (centres unmarked) [Example 1-8]  IP receptor (Homo sapiens, UniProt P43119)        pIC50        > 7.00
3  O=C(O)C(Cc1ccccc1)Nc1cc(-c2ccc(Cc3ccc(F)cc3)cc2)ncn1 (centres unmarked) [Example 18-2]  IP receptor (Homo sapiens, UniProt P43119)        pIC50  6.00 to 7.00
4  CCCCC(Nc1cc(-c2ccc(OCc3cccc(OC)c3)cc2)ncn1)C(=O)O (centres unmarked) [Example 2-44]  IP receptor (Homo sapiens, UniProt P43119)        pIC50        > 7.00
5  O=C(O)C(Cc1ccccc1)Nc1cncc(-c2ccc(OCc3ccccc3)cc2)n1 (centres unmarked) [Example 3-2]  IP receptor (Homo sapiens, UniProt P43119)        pIC50        < 6.00
6  O=C(O)C(CC(F)(F)F)Nc1cc(-c2ccc(OCc3ccccc3)cc2)ncn1 (centres unmarked) [Example 1-32]  IP receptor (Homo sapiens, UniProt P43119)        pIC50        > 7.00
7  O=C(O)C(Cc1cccc(OCCN2CCOCC2)c1)Nc1cc(-c2ccc(OCc3ccccc3)cc2)ncn1 (centres unmarked) [Example 4-2]  IP receptor (Homo sapiens, UniProt P43119)        pIC50        > 7.00

* * *

testedOn: IP receptor (Homo sapiens, UniProt P43119)
Construct: one million cells in 160 μl aliquot of cell suspension were put in a well of 96 well plate; host or cells: HEL 92.1.7 human erythroleukemia cells (whole cells)
assayRemarks: IP receptor binding/cAMP in HEL cells ([3H]-iloprost binding, Assay 1; iloprost-induced cAMP production, Assay 2)
experimentalParameters: compounds of about 40 to 90% purity, read-out: In vitro activity grade (IC50 class)
Structures can show the parent of a compound that is named as a salt.
Property: IC50; scope: individual compounds
readoutType: IC50

>>> print(df.to_string())
                                    compound          result
 0  COc1cccc(COc2ccc(-c3cc(NC(Cc4ccccc4)C(=O)O)ncn3)cc2)c1 (stereo not drawn)        < 100 nM
 1  CC(Nc1cc(-c2ccc(OCc3ccccc3)cc2)ncn1)C(=O)O (stereo not drawn)  100 to 1000 nM
 2  O=C(O)[C@@H](Cc1ccccc1)Nc1cc(-c2ccc(OCc3ccccc3)cc2)ncn1        < 100 nM
 3  O=C(O)C(Cc1ccc(Cl)cc1)Nc1cc(-c2ccc(OCc3ccccc3)cc2)ncn1 (stereo not drawn)        < 100 nM
 4  O=C(O)C(Cc1ccccc1)Nc1cc(-c2ccc(NCc3ccccc3)cc2)ncn1 (stereo not drawn) [Example 13-1, hydrochloride]        < 100 nM
 5  O=C(O)C(Cc1ccccc1)Nc1cc(-c2ccc(OCCc3ccccc3)cc2)ncn1 (stereo not drawn)        < 100 nM
 6  O=C(O)C(Cc1ccccc1)Nc1cc(-c2ccc(CCCc3ccccc3)cc2)ncn1 (stereo not drawn)        < 100 nM
 7  O=C(O)C(Cc1ccccc1)Nc1cc(-c2ccc(CNc3ccccc3)cc2)ncn1 (stereo not drawn)        < 100 nM
 8  O=C(O)C(Cc1ccccc1)Nc1cc(-c2ccc(OCc3ccc(F)cc3)cc2)ncn1 (stereo not drawn)        < 100 nM
 9  O=C(O)C(Cc1ccccc1)Nc1ncnc(-c2ccc(OCC3CC3)cc2)c1F (stereo not drawn)        < 100 nM
10  O=C(O)C(Cc1ccccc1)Nc1cc(-c2ccc(OCc3ccccc3)cc2)nc(Cl)n1 (stereo not drawn)        < 100 nM
11  O=C(O)C(Cc1ccccc1)Nc1nc(-c2ccc(OCc3ccccc3)cc2)cs1 (stereo not drawn)       > 1000 nM
12  O=C(O)C(Cc1ccccc1)Nc1cc(-c2ccc(-c3ccccc3)cc2)ncn1 (stereo not drawn)        < 100 nM
13  CCCCC(Nc1cc(-c2ccc(-c3ccccc3)cc2)ncn1)C(=O)O (stereo not drawn)  100 to 1000 nM
14  O=C(O)[C@H](Cc1ccccc1)Nc1cc(-c2ccc(OCc3ccccc3)cc2)ncn1  100 to 1000 nM
15  NCCOc1cccc(C[C@H](Nc2cc(-c3ccc(OCc4ccccc4)cc3)ncn2)C(=O)O)c1        < 100 nM
16  COc1ccc(-c2ccc(-c3cc(N[C@@H](Cc4ccccc4)C(=O)O)ncn3)cc2)cc1        < 100 nM
17  CC(O)C(Nc1cc(-c2ccc(OCc3ccccc3)cc2)ncn1)C(=O)O (stereo not drawn)  100 to 1000 nM
18  O=C(O)C(Cc1ccc(F)cc1)Nc1cc(-c2ccc(OCc3ccccc3)cc2)ncn1 (stereo not drawn)        < 100 nM
19  COc1cc(COc2ccc(-c3cccc(NC(Cc4ccccc4)C(=O)O)c3)cc2)cc(OC)c1 (stereo not drawn)        < 100 nM
20  O=C(c1ccc(Cl)cc1)c1ccc(-c2cc(NC(Cc3ccccc3)C(=O)O)ncn2)cc1 (stereo not drawn)        < 100 nM
21  O=C(O)C(Cc1ccccc1)Nc1cc(-c2ccc(OCc3ccncc3)cc2)ncn1 (stereo not drawn)        < 100 nM
22  CCOc1ccc(-c2cc(NC(Cc3ccccc3)C(=O)O)ncn2)cc1 (stereo not drawn)        < 100 nM
23  COc1cccc(-c2ccc(-c3cc(NC(Cc4ccccc4)C(=O)O)ncn3)cc2)c1 (stereo not drawn)        < 100 nM
24  COc1ccccc1-c1ccc(-c2cc(NC(Cc3ccccc3)C(=O)O)ncn2)cc1 (stereo not drawn)  100 to 1000 nM
25  O=C(O)C(CCc1ccccc1)Nc1cc(-c2ccc(OCc3ccccc3)cc2)ncn1 (stereo not drawn)        < 100 nM
26  CCCCOc1ccc(-c2cc(NC(Cc3ccccc3)C(=O)O)ncn2)cc1 (stereo not drawn)        < 100 nM
27  O=C(O)C(Cc1ccccc1)Nc1cc(-c2ccc(OCc3ccccc3)cc2)ccn1 (stereo not drawn)        < 100 nM
28  O=C(O)C(Cc1ccccc1)Nc1cc(-c2ccc(OCC3CCC3)cc2)ncn1 (stereo not drawn)        < 100 nM
29  Cn1nc(-c2ccc(OCc3ccccc3)cc2)cc1NC(Cc1ccccc1)C(=O)O (stereo not drawn)       > 1000 nM
30  O=C(O)C(Cc1ccccc1)Nc1ncnc(-c2ccc(OCc3ccccc3)cc2)c1[N+](=O)[O-] (stereo not drawn)       > 1000 nM
31  COc1cc(-c2ccc(-c3cc(NC(Cc4ccccc4)C(=O)O)ncn3)cc2)cc(OC)c1OC (stereo not drawn)  100 to 1000 nM
32  O=C(O)C(Cc1ccccc1)Nc1cc(-c2ccc(O)cc2)ncn1 (stereo not drawn)       > 1000 nM

* * *

testedOn: IP receptor (Homo sapiens)
Construct: one million cells in 160 μl aliquot of cell suspension were put in a well of 96 well plate
assayRemarks: IP receptor binding/cAMP in HEL cells ([3H]-iloprost binding, Assay 1; iloprost-induced cAMP production, Assay 2)
experimentalParameters: compounds of about 40 to 90% purity, read-out: In vitro activity grade (IC50 class)
Counter-ions that a name gives are not always drawn.
Property: IC50; scope: individual molecules
readoutType: IC50

                                    molecule                    testedon  readouttype          result
 0  O=C(O)C(Cc1ccccc1)Nc1cc(-c2ccc(-c3ccc(Oc4ccccc4)cc3)cc2)ncn1 (stereo not shown) [Example 11-11]  IP receptor (Homo sapiens)         IC50  100 to 1000 nM
 1  O=C(O)[C@H](Cc1ccccc1)Nc1cc(-c2ccc(NS(=O)(=O)c3ccccc3)cc2)ncn1 [Example 15-1]  IP receptor (Homo sapiens)         IC50       > 1000 nM
 2  O=C(O)C(Cc1ccccc1)Nc1cccc(-c2ccc(OCc3ccccc3)cc2)n1 (stereo not shown) [Example 3-3]  IP receptor (Homo sapiens)         IC50       > 1000 nM
 3  O=C(O)[C@H](Cc1ccccc1)Nc1cccc(-c2ccc(OCc3ccccc3)cc2)c1 [Example 24-1]  IP receptor (Homo sapiens)         IC50        < 100 nM
 4  CCCC[C@@H](Nc1cc(-c2ccc(OCc3ccccc3)cc2)ncn1)C(=O)O [Example 1-3, hydrochloride]  IP receptor (Homo sapiens)         IC50        < 100 nM
 5  O=C(c1ccc(-c2cc(NC(Cc3ccccc3)C(=O)O)ncn2)cc1)C1CCCCC1 (stereo not shown) [Example 17-2]  IP receptor (Homo sapiens)         IC50  100 to 1000 nM
 6  N#Cc1ccnc(Oc2ccc(-c3cc(N[C@@H](Cc4ccccc4)C(=O)O)ncn3)cc2)c1 [Example 12-1]  IP receptor (Homo sapiens)         IC50        < 100 nM
 7  O=C(O)C(Cc1ccccc1)Nc1cc(-c2ccc(Oc3ccc(C(F)(F)F)cn3)cc2)ncn1 (stereo not shown) [Example 12-5]  IP receptor (Homo sapiens)         IC50  100 to 1000 nM
 8  O=C(O)C(Cc1ccccc1)Nc1cccc(-c2ccc(OCc3ccccc3)nc2)c1 (stereo not shown) [Example 25-2]  IP receptor (Homo sapiens)         IC50  100 to 1000 nM
 9  O=C(O)[C@H](Cc1ccc(NC2=NCCN2)cc1)Nc1cc(-c2ccc(OCc3ccccc3)cc2)ncn1 [Example 6-1]  IP receptor (Homo sapiens)         IC50        < 100 nM
10  O=C(O)C(Cc1ccccc1)Nc1ncnc(-c2ccc(OCc3ccccc3)cc2)n1 (stereo not shown) [Example 1-30]  IP receptor (Homo sapiens)         IC50        < 100 nM
11  O=C(O)[C@H](Cc1ccccc1)Nc1cc(-c2ccc(OCC3CC3)cc2)ncn1 [Example 2-1]  IP receptor (Homo sapiens)         IC50        < 100 nM
12  Cc1ccc(C#N)c(Oc2ccc(-c3cc(NC(Cc4ccccc4)C(=O)O)ncn3)cc2)n1 (stereo not shown) [Example 12-4]  IP receptor (Homo sapiens)         IC50       > 1000 nM
13  O=C(c1ccc(F)cc1)c1ccc(-c2cc(NC(Cc3ccccc3)C(=O)O)ncn2)cc1 (stereo not shown) [Example 17-4]  IP receptor (Homo sapiens)         IC50        < 100 nM
14  O=C(O)C(Cc1ccccn1)Nc1cc(-c2ccc(OCCc3ccccc3)cc2)ncn1 (stereo not shown) [Example 2-38]  IP receptor (Homo sapiens)         IC50        < 100 nM
15  O=C(O)[C@H](Cc1ccccc1)Nc1cc(-c2ccc(C#Cc3ccccc3)cc2)ncn1 [Example 9-1]  IP receptor (Homo sapiens)         IC50        < 100 nM

src = patent US20060089371A1
